Attribution: patent US11208418B2

experiment: Pharmacokinetic test in SD rats; format: in vivo; settings: male, rat, plasma, iv, 1 mg/kg
RECORDED_METRIC: Cmax (ng/mL)

> print(dat)
                                   compound  observed.result
1  O=C(O)c1ccc2c(c1)Oc1ccc(OCc3c(-c4ccccc4OC(F)(F)F)noc3C3CC3)nc1C1(CC1)C2 [Example 3]             1660

* * *

assay: Pharmacokinetic test in SD rats; format: in vivo; details: male, rat, plasma, po, 5 mg/kg
RECORDED_METRIC: AUC(0-inf) (ng·h/mL)

> print(dat)
                                   molecule  recorded.metric  observed.result
1  O=C(O)c1ccc2c(c1)Oc1ccc(OCc3c(-c4ccccc4OC(F)(F)F)noc3C3CC3)nc1C1(CC1)C2 [Example 3]       AUC(0-inf)             6210

* * *

assay: Pharmacokinetic test in SD rats; format: in vivo; conditions: male, rat, plasma, iv, 1 mg/kg
RECORDED_METRIC: Tmax (min)

> print(dat)
                              smiles.record  recorded.metric  observed.result
1  O=C(O)c1ccc2c(c1)Oc1ccc(OCc3c(-c4ccccc4OC(F)(F)F)noc3C3CC3)nc1C1(CC1)C2             Tmax             4.98

* * *

test: Pharmacokinetic test in SD rats; assay type: in vivo; conditions: male, rat, plasma, iv, 1 mg/kg, read-out: Vss
RECORDED_METRIC: Vd (L/kg)

> print(dat)
                              smiles.record  recorded.metric  observed.result
1  O=C(O)c1ccc2c(c1)Oc1ccc(OCc3c(-c4ccccc4OC(F)(F)F)noc3C3CC3)nc1C1(CC1)C2               Vd            0.584

* * *

Assay: Pharmacokinetic test in SD rats
Assay type: in vivo
Conditions: male, rat, plasma, po, 5 mg/kg
Method: Experimental animals: 6 healthy male adult SD rats (purchased from Hunan SJA Laboratory Animal Co.; Ltd) were randomized into 2 groups, 3 in each group, the groups were administered by intravenous injection and gavage respectively. Preparation of drugs: an amount of the compound was scaled, and the target concentrate of the compound was prepared by addition of 5% DMSO, 10% Kolliphor HS15 and 85% saline (0.9%). […]
RECORDED_METRIC: MRT inf (h)

> print(dat)
                              smiles.record  observed.result
1  O=C(O)c1ccc2c(c1)Oc1ccc(OCc3c(-c4ccccc4OC(F)(F)F)noc3C3CC3)nc1C1(CC1)C2             1.72

* * *

assay: Pharmacokinetic test in SD rats; assay type: in vivo; conditions: male, rat, plasma, iv, 1 mg/kg
RECORDED_METRIC: AUC(0-inf) (µg·h/mL)

> print(dat)
                              smiles.record  recorded.metric  units.label  observed.result
1  O=C(O)c1ccc2c(c1)Oc1ccc(OCc3c(-c4ccccc4OC(F)(F)F)noc3C3CC3)nc1C1(CC1)C2       AUC(0-inf)      µg·h/mL             1.74

* * *

assay: Pharmacokinetic test in SD rats; assay type: in vivo; settings: male, rat, plasma, po, 5 mg/kg
RECORDED_METRIC: Tmax

> print(dat)
                              smiles.record  observed.result
1  O=C(O)c1ccc2c(c1)Oc1ccc(OCc3c(-c4ccccc4OC(F)(F)F)noc3C3CC3)nc1C1(CC1)C2              1 h
